TEST_TARGET: T1, human BLyS (full length, arginine to histidine at position 132) on CHO-K1 cells (human, UniProt Q9Y275 1-285)
T1 construct: also called hBLyS; CHO-K1 hBLyS
T1 sequence (Q9Y275 whole entry R130H): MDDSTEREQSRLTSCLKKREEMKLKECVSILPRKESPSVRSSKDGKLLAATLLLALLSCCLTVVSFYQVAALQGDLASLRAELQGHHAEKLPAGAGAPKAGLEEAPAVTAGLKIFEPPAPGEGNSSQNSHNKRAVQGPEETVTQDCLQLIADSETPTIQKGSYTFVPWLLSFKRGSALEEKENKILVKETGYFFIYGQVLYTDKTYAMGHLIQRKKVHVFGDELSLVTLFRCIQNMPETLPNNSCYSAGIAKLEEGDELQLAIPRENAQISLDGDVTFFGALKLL
EXPERIMENT_SUMMARY: flow cytometry, CHO-K1 hBLyS cells, antibody 0.0213 nM
READOUT_NAME: MFI (MFI)
Just the number in MFI, nothing appended.

Identify measured MFI associated with 78C11D2D12 (antibody, V domains shown, Mouse hybridoma monoclonal antibody purified on Protein G) VH: QVQLQQSGAELVRPGTSVKISCKASGYAFTNYWLGWVKQRPGHGLEWIGDIYPGSGNTYYNEKFKGKATLTADKSSSTAYMQLSSLTSEDSAVFFCAAYLYAMDYWGQGTSVTVSS VL: QIVLTQSPAIMSASPGEKVTITCSASSSVSYMHWFQQKPGTSPKLWIYSASNLASGVPARFSGSGSGTSYSLTISRMEAEDAATYYCQQRGSYPFTFGSGTKLEIK
61.3

Using the record for 2-1G11 (antibody, V domains shown, From a human naive scFv phage library; also called human BLyS antibody 2-1G11) VH: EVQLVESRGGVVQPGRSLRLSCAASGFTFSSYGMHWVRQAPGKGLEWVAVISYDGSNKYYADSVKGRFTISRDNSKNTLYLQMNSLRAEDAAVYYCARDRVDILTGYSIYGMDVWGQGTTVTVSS VL: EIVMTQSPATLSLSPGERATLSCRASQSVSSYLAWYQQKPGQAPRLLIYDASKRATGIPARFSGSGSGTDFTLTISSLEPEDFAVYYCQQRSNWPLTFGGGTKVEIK , state its measured MFI.
180

Dear colleague, please send me the reported MFI for 20D1B6E9E5 (antibody, V domains shown, Mouse hybridoma monoclonal antibody purified on Protein G) VH: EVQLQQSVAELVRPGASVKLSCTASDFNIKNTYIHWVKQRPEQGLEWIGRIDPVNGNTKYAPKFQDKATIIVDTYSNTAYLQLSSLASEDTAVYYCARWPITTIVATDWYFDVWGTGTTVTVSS VL: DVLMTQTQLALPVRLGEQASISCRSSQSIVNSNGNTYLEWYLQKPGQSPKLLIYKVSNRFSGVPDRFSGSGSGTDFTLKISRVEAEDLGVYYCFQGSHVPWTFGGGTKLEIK when you can.
83.6
